binders and their reported pKd
Target: T1, recombinant FAP protein (BioLegend), biotinylated (Homo sapiens (Human), UniProt Q12884 26-760, Biotinylated (sites not given) for loading on streptavidin sensors. Any vendor tag is not stated in the passages shown.)
T1 construct: Loaded on streptavidin sensors for BLI; also called biotinylated FAP
T1 sequence: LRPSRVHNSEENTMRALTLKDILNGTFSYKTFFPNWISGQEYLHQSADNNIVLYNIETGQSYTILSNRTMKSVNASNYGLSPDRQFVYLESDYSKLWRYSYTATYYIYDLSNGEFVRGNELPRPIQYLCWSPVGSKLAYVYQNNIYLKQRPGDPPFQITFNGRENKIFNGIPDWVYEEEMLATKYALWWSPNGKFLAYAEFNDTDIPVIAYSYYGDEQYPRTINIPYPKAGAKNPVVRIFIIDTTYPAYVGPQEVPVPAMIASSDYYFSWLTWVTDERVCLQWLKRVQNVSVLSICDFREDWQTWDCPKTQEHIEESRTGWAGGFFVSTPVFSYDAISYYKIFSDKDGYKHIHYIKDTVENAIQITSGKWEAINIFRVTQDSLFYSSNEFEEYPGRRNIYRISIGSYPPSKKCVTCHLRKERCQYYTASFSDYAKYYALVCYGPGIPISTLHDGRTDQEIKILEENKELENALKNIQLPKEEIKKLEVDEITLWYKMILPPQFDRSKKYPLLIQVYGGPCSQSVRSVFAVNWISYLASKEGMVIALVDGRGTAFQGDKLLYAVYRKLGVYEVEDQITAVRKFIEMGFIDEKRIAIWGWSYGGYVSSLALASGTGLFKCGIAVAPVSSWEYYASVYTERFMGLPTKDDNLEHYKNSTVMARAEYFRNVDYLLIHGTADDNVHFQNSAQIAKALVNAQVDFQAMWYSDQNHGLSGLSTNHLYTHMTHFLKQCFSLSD
Test: BLI (Octet RED96), biotinylated FAP on streptavidin sensors
pKd: −log10 of the molar value.

BINDER	pKd
P-1904: 2PE14_opt3 (Q1D_Q5V_A74S_S82N_K83R_Q108L) (VHH, also called pET28 PelB-2PE14_opt3 (idem + S82N)) VHH: DVQLVESGGGLVQPGGSLRLSCAASGSTFSINAVAWYRQAPGKRRELVAGISGGGVTNYPDSVKGRFTISRDNSKNTVYLQMNSLRPEDTAVYYCNLWPPRASPGGRVYWGQGTLVTVSS	9.19
P-1924: 3PE42_M31A (VHH, also called pET28 PelB-3PE42_M42A) VHH: QVQLQESGGGLVQPGESLRLSCAVSGSTSSANAMAWYRQAPGKRRELVAGISGGGATNYPDSVKGRFTISRDNAKNTVYLQMSSLKPEDTAVYYCNLWPPRASPGGGVYWGQGTQVTVSS	10.05
P-1923: 3PE42 (VHH, also called pET28 PelB-3PE42) VHH: QVQLQESGGGLVQPGESLRLSCAVSGSTSSMNAMAWYRQAPGKRRELVAGISGGGATNYPDSVKGRFTISRDNAKNTVYLQMSSLKPEDTAVYYCNLWPPRASPGGGVYWGQGTQVTVSS	9.23
P-1903: 2PE14_opt2 (Q1D_Q5V_P60A_A74S_K83R_Q108L) (VHH, also called pET28 PelB-2PE14_opt2 (idem + P60A)) VHH: DVQLVESGGGLVQPGGSLRLSCAASGSTFSINAVAWYRQAPGKRRELVAGISGGGVTNYADSVKGRFTISRDNSKNTVYLQMSSLRPEDTAVYYCNLWPPRASPGGRVYWGQGTLVTVSS	8.65
P-1936: 3PE42_M31R (VHH, also called pET28 PelB-3PE42_M42R) VHH: QVQLQESGGGLVQPGESLRLSCAVSGSTSSRNAMAWYRQAPGKRRELVAGISGGGATNYPDSVKGRFTISRDNAKNTVYLQMSSLKPEDTAVYYCNLWPPRASPGGGVYWGQGTQVTVSS	10.56
P-1934: 3PE42_M31P (VHH, also called pET28 PelB-3PE42_M42P) VHH: QVQLQESGGGLVQPGESLRLSCAVSGSTSSPNAMAWYRQAPGKRRELVAGISGGGATNYPDSVKGRFTISRDNAKNTVYLQMSSLKPEDTAVYYCNLWPPRASPGGGVYWGQGTQVTVSS	8.87
P-1902: 2PE14_opt1 (Q1D_Q5V_A74S_K83R_Q108L) (VHH, also called pET28 PelB-2PE14_opt1) VHH: DVQLVESGGGLVQPGGSLRLSCAASGSTFSINAVAWYRQAPGKRRELVAGISGGGVTNYPDSVKGRFTISRDNSKNTVYLQMSSLRPEDTAVYYCNLWPPRASPGGRVYWGQGTLVTVSS	10.02
P-1928: 3PE42_M31G (VHH, also called pET28 PelB-3PE42_M42G) VHH: QVQLQESGGGLVQPGESLRLSCAVSGSTSSGNAMAWYRQAPGKRRELVAGISGGGATNYPDSVKGRFTISRDNAKNTVYLQMSSLKPEDTAVYYCNLWPPRASPGGGVYWGQGTQVTVSS	8.40
